Values compiled from the EternaBench riboswitch data.

# Tested on: MS2 coat protein
# PROTOCOL_TEXT: apparent Kd, MS2 coat protein; higher = weaker binding; RNA-MaP array
# CONDITION_NOTES: designed as: ON switch for flavin mononucleotide; no ligand
MEASUREMENT_NAME: apparent Kd (nM)
One number for each entry, in nM.

Working through the 4 sequences below one at a time, give apparent Kd for each.
1. UCUUUAAGCACAGGAUAUUGGUACAUGAGGAUCACCCAUGUGGAUCGUACUACCUCUCCACCGGACAAGAAGGGUGCGCCUACG
2. UACCGCUACAUAGGAUAUGGAGGAUGUAUGAAACACAUGAGGAUCACCCAUGUCAUCUGCACACGCCAGAAGGAUGGAAGAAAA
3. AUCCGUGCAGCAAAUGGAGUGACAUGAGGAUCACCCAUGUAUGAGGAUAUGGCUCCGCCAGGGUACCAGAAGGCAUAAGGGAGG
4. GAAAAGGACAAAGGAUAUGGGUAGGCAAUCAAUCCAGAAGGUAGACCAGGCAACCUAAACAAACAUGAGGAUCACCCAUGUUAG

Out:
172
13.4
908
16.6

Answer for every listed entry: what is its apparent Kd? The entries follow.
1. AUAAAUUUUACACGUUGCUACAUGAGGAUCACCCAUGUGUGGAGAAGGGAUCUGCCUACAAGGAAUCAGGAUAUCCAACUGUUC
2. UACCGACAUGAGGAUCACCCAUGUACUGCGCUUGGAGGAUAUCGGCUUGAUUUUGCGCGUCGAGAAGGCCAACCUA
3. ACUAUACAUGAGGAUCACCCAUGUGGUCACAUAUGAGGAUAUAUGCGGCUGUCCCGGUCAAUAGAAGGCAUAUUUA

Out:
32.9
12.2
52

----------
# Tested on: MS2 coat protein
# PROTOCOL_TEXT: apparent Kd, MS2 coat protein; higher = weaker binding; RNA-MaP array
# CONDITION_NOTES: designed as: ON switch for theophylline; no ligand
MEASUREMENT_NAME: apparent Kd (nM)
Numbers only, in nM.

Quick request: apparent Kd for each listed item, please.
1. GUCUCAGACCGAGAUACCAGCUGGGUUUCCCACAUGAGGAUCACCCAUGUAUUCAGAUUAAGCCCUUGGCAGCUCAUCUAGGUCC
2. GGACAACAUGAGGAUCACCCAUGUCCUGAUACCAGUCAGCGCAGUGACCCUUGGCAGCAGACGGAUACGAAAUAACUGAGAGAUA
3. AACCAUCUCGGCGAUACCAGUGCCUACGAGUACAUGAGGAUCACCCAUGUAGGUGACCGACACCCUUGGCAGCGCGAUUGAGUCA
4. CUUCAACAUGAGGAUCACCCAUGUAGUGAUACCAGUCACUCAUACGACCCUUGGCAGCACAUUUUCUGUCGGCAUGUAGACGAUC
5. UUAAUCGUGCAUGAUACCAGUAUCCGUAGAUACAUGAGGAUCACCCAUGUCUGGUUGGAAUACCCUUGGCAGCAUGGGUUGAGGA

Out:
[15.8, 40.6, 140, 121, 242]

----------
# Test system: MS2 coat protein
# PROTOCOL_TEXT: apparent Kd, MS2 coat protein; higher = weaker binding; RNA-MaP array
# CONDITION_NOTES: designed as: ON switch for flavin mononucleotide; no ligand
MEASUREMENT_NAME: apparent Kd (nM)
Answers are plain numbers, in nM.

Observe how each entry below is paired with its result.
In: Consider the sequence `ACAUGAGGAUCACCCAUGUUAAAAGAAGAUAGCAUAUUGGGUAGAAGGUCACAUUUCCAUUAAGUGAAGGAUAUACCAUGAUUC` and give its measured apparent Kd.
Out: 12.6

In: Fill in: apparent Kd of `CACGCUCACCAGAAGGCAGAGCAUAAAUGACAUGAGGAUCACCCAUGUACGCAGGAGAUCGGGUCUGAGGAUAUGGCAAUAGGC` is ___
Out: 21.4

In: Form field: reported apparent Kd of `CACCCAACUAUACAUGAGGAUCACCCAUGUUGAAAGUGCAACAGAAGGCCCUACUAAUAUAGGAGGGAGGAUAUGUGAACCGAA`
Out: 62.5

In: What value of apparent Kd has been recorded for this entry: `CAGACCCGGAAGAAGGAGGAGACAUAAACACGCCUAGGAUAUACGCCUGAAUAAACGUAAACAUGAGGAUCACCCAUGUCAAAC`
Out: 9.5

In: // lookup apparent Kd for `AAGAGUGUGAGAGGAUAUGCUUACCCAUAUCACAUGAGGAUCACCCAUGUCGGCGAUUGUAUUAUGCAGAAGGCUCAAGGACUC`
Out: 18.3

Answer for every listed entry: what is its apparent Kd? The entries follow.
1. ACAUGAUGCUAGAAGGGCACACAUGAGGAUCACCCAUGUCGAACGAUUCUUCGGGACUAUCGCAUGCAGGAUAUAGCUAAAUCG
2. UAGGACAUCCAGAAGGUAACCCAAUGAUAUAACACAUGAGGAUCACCCAUGUUGAAUCAGAGACUUAAGGAUAUGGUUGAUCUU
3. AUCGUGCCAAGAGGAUAUCACCAUUCAAUACCCACAUGAGGAUCACCCAUGUAUGCAGUGUUCCGUGAGAAGGCUUGCAUACCA

Out:
[13.2, 23.1, 113]

Kindly give each listed record's apparent Kd.
1. AAUACACUUGAGAAGGCCCAAACAUGAGGAUCACCCAUGUGACAUGUAAUCGCCGCGAAUGGAAGGGAGGAUAUCAGAAUCCAC
2. AAGAACCAGAUAGGAUAUCCGUUUAAAUCACAAGGAGAAGGAUCAAAUACAAAACAUGAGGAUCACCCAUGUGGAAGAUAGCUA
3. AGAAAGAAUCAGAAGGCAGAGAUGUCUAUCUACUGAGGAUAUGAAUGACAUGAGGAUCACCCAUGUUGUCAGGCCAGGCCCAAC
4. GGUUCUUGUUGACGUUUAUACAUGAGGAUCACCCAUGUUGCGCAGGAUAUUUCACAUUGAUAGAGAAAGAAGGGCGAUGUACGU

Out:
16.2
33.2
7.78
10.4
